system: A549 cells; experiment: Cell viability resazurin assay, A549 cells; assay type: cell-based, human; settings: 24 h incubation, 25 µM, ± SD
measurementKind: viability of A549 cells relative to control (%)
Express your answer in %, writing the number without its unit.

As a guide, the following entries are already answered.
O=C1C=CC(=O)[N-]1.[C-]#[O+].[Fe+2].c1cc[cH-]c1.c1ccc(OP(Oc2ccccc2)Oc2ccccc2)cc1 ... 25.66
CCOP(OCC)OCC.O=C1C=CC(=O)[N-]1.[C-]#[O+].[Fe+2].c1cc[cH-]c1 ... 131.92
O=C1C=CC(=O)[N-]1.[C-]#[O+].[Fe+2].c1cc[cH-]c1.c1ccc(P(c2ccccc2)c2ccccc2)cc1 ... 117.99
O=C1C=CC(=O)[N-]1.[C-]#[O+].[C-]#[O+].[Fe+2].c1cc[cH-]c1 ... 82.97

Alright, here's another compound for you.
Lab note: measured viability of A549 cells relative to control of "O=C1C=CC(=O)[N-]1.[C-]#[O+].[Fe+2].c1cc[cH-]c1.c1coc(P(c2ccco2)c2ccco2)c1" was 110.30
